B1: HEEH_KT_rd6_3632 (parent)
chain: DAEELIELVERALKEGREIILLGVRITSEEAGKWFIEWIRRFL

- Variants of: B1
- experimentNotes: folding stability dG (cDNA display proteolysis); higher = more stable
- conditionSet: PBS, room temperature
# Lookup of reported folding stability dG keyed by entry
Dear colleague, please return just the value in kcal/mol, with no unit written.

Below, each entry is followed by its recorded folding stability dG result.
| sequenceInput | parameter | measuredNumber |
| --- | --- | --- |
| DAEELIELVERALKEGREIILLGVRITSSEAGKWFIEWIRRFL | folding stability dG | 3.71 |
| DAEELIELVERALKEGREIILLGVRITSEEAGKWFPEWIRRFL | folding stability dG | 2.59 |
| DAEELIELVERALKEGREIILLGVRITSEEAGKWFIEWIRRFH | folding stability dG | 3.17 |
| DAEELIELVERALKEGREIILLGVRIFSEEAGKWFIEWIRRFL | folding stability dG | 4.03 |
| DAEELIELVERALKEGREIILLGVRITSEEAGKWFIEWIMRFL | folding stability dG | 3.89 |
| DAEELIELVERALKEGREIILLGVRITSEEAGKRFIEWIRRFL | folding stability dG | 3.98 |
| DAEELIELVERALKEGREIILLGVRITSFEAGKWFIEWIRRFL | folding stability dG | 3.88 |
| DAEELIELVERALKEGREIIVLGVRITSEEAGKWFIEWIRRFL | folding stability dG | 3.9 |

Give reported folding stability dG value for DAEEEIELVERALKEGREIILLGVRITSEEAGKWFIEWIRRFL 2.77

Give reported folding stability dG value for DAEELIELVERALKEGREIILLGVRITSEEAGKWFIIWIRRFL 3.87

Give reported folding stability dG value for DAEELIELVERALKEGREIILLGVRITSEEAGKWFIEWGRRFL 2.66

Give reported folding stability dG value for DAEELIELVERALKEGREYILLGVRITSEEAGKWFIEWIRRFL 3.23

Give reported folding stability dG value for DAEELIELVEHALKEGREIILLGVRITSEEAGKWFIEWIRRFL 3.45

Give reported folding stability dG value for DAEELIELVERALKEGREIILLGVKITSEEAGKWFIEWIRRFL 3.57

Give reported folding stability dG value for DAEELIELVERALKEGREIILLSVRITSEEAGKWFIEWIRRFL 3.56

Give reported folding stability dG value for DAEELIELVEWALKEGREIILLGVRITSEEAGKWFIEWIRRFL 3.66

Give reported folding stability dG value for DAEELIELVERALKEGREIILLGVRITSEEAGIWFIEWIRRFL 3.56

Give reported folding stability dG value for DAEELIELVERSLKEGREIILLGVRITSEEAGKWFIEWIRRFL 3.31

Give reported folding stability dG value for DAEELIMLVERALKEGREIILLGVRITSEEAGKWFIEWIRRFL 3.82

Give reported folding stability dG value for DAEELTELVERALKEGREIILLGVRITSEEAGKWFIEWIRRFL 3.25

Give reported folding stability dG value for DAEELIELVERALHEGREIILLGVRITSEEAGKWFIEWIRRFL 3.49

Give reported folding stability dG value for DAEELIELVERALKYGREIILLGVRITSEEAGKWFIEWIRRFL 3.67

Give reported folding stability dG value for DAEELIELVERALKEGREIILLGVRITSEEAGHWFIEWIRRFL 3.51

Give reported folding stability dG value for DKEELIELVERALKEGREIILLGVRITSEEAGKWFIEWIRRFL 3.5

Give reported folding stability dG value for DAEELIEFVERALKEGREIILLGVRITSEEAGKWFIEWIRRFL 3.77

Give reported folding stability dG value for DAEELIELVERALKEGREIILLGVRITPEEAGKWFIEWIRRFL 3.5
